- measurement_description: Intrinsic clearance in human liver microsome at 1 uM after 30 mins by LC-UV/MS analysis
- Type: ADME
- cond: liver microsomes
endpoint_name: microsomal CLint at 1 µM (µL/min/mg)
One number for each entry, in µL/min/mg.

In [3]: df
Out[3]:
                               smiles_input  result
0  CC(C)(C)OC(=O)NC[C@H]1CC[C@H](CNC(=O)c2cc(-c3ccncc3)nc3ccccc23)CC1     146

Give me microsomal CLint at 1 µM for each of these compounds, listed below.
1. CC(C)(C)OC(=O)NC[C@H]1CC[C@H](CNC(=O)c2cc(N3CCC(CCN4CC(O)C4)CC3)nc3ccccc23)CC1
2. CN(C)CCC1CCN(c2cc(C(=O)NC[C@H]3CC[C@H](CNC(=O)OC(C)(C)C)CC3)c3ccccc3n2)CC1
3. CC(C)(C)OC(=O)NC[C@H]1CC[C@H](CNC(=O)c2cc(-c3cccc(CN)c3)nc3ccccc23)CC1
4. CC(C)(C)OC(=O)NC[C@H]1CC[C@H](CNC(=O)c2cc(-c3ccccc3)nc3ccccc23)CC1

Reply |
1: 16; 2: 14; 3: 14; 4: 124

----------
- measurement_description: Lipophilicity, log D of the compound
- Format: physicochemical
- cond: octanol/water
Each record is given Condition met if its reported logD is strictly below 4. Records at or above 4 are given Condition not met.

Known results for compounds:
>>> df
                               smiles_input     assigned_label
0  CC(C)(C)OC(=O)NC[C@H]1CC[C@H](CNC(=O)c2cc(N3CCC(CCN4CC(O)C4)CC3)nc3ccccc23)CC1      Condition met
1  CN(C)CCC1CCN(c2cc(C(=O)NC[C@H]3CC[C@H](CNC(=O)OC(C)(C)C)CC3)c3ccccc3n2)CC1      Condition met
2  CC(C)(C)OC(=O)NC[C@H]1CC[C@H](CNC(=O)c2cc(-c3ccc(CN)cc3)nc3ccccc23)CC1      Condition met
3  CC(C)(C)OC(=O)NC[C@H]1CC[C@H](CNC(=O)c2ccnc(-c3ccccc3)c2)CC1  Condition not met

With those in mind, consider the next compound.
Ask | In the record for CC(C)(C)OC(=O)NC[C@H]1CC[C@H](CNC(=O)c2cc(-c3ccc(C(=O)O)cc3)nc3ccccc23)CC1 , is logD less than 4?
Reply | Condition met

----------
- target: Voltage-gated inwardly rectifying potassium channel KCNH2 (Homo sapiens, UniProt Q12809)
- Sequence (Q12809 whole entry): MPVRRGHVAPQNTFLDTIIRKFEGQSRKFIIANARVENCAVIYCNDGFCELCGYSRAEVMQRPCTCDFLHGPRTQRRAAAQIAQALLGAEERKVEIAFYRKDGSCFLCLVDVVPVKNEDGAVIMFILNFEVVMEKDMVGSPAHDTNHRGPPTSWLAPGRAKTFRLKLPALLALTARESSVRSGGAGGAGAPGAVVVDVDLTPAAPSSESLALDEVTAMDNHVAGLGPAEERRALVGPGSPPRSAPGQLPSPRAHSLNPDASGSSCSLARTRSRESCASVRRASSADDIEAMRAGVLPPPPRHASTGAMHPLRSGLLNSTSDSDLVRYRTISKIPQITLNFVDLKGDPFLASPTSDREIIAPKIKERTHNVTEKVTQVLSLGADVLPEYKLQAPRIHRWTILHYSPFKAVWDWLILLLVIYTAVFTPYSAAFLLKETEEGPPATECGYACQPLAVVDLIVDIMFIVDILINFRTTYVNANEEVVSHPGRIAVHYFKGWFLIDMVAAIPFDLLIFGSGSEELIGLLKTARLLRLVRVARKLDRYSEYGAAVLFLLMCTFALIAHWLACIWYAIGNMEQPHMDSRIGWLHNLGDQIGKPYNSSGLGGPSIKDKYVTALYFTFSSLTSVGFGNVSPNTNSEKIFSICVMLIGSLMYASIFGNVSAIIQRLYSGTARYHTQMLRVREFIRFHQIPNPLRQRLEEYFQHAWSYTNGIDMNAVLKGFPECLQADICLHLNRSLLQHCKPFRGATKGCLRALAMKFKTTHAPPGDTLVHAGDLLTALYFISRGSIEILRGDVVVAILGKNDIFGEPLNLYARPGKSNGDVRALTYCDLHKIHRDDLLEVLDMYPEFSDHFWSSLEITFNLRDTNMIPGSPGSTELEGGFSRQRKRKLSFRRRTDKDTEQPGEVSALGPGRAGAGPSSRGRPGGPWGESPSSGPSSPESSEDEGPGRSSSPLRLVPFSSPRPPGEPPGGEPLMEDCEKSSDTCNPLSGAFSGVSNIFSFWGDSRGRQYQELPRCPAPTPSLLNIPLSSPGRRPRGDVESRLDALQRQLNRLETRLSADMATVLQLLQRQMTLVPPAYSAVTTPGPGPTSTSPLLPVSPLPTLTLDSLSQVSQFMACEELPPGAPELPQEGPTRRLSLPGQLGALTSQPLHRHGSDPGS
pIC50: −log10 of the molar value.
endpoint_name: pIC50

Ask | Return pIC50 measured with Voltage-gated inwardly rectifying potassium channel KCNH2 (Homo sapiens, UniProt Q12809) given this compound: CN(C)CCC1CCN(c2cc(C(=O)NC[C@H]3CC[C@H](CNC(=O)OC(C)(C)C)CC3)c3ccccc3n2)CC1
Reply | < 4.48

----------
- target: Acetyl-CoA carboxylase 2 (Homo sapiens, UniProt O00763)
- Sequence (O00763 whole entry): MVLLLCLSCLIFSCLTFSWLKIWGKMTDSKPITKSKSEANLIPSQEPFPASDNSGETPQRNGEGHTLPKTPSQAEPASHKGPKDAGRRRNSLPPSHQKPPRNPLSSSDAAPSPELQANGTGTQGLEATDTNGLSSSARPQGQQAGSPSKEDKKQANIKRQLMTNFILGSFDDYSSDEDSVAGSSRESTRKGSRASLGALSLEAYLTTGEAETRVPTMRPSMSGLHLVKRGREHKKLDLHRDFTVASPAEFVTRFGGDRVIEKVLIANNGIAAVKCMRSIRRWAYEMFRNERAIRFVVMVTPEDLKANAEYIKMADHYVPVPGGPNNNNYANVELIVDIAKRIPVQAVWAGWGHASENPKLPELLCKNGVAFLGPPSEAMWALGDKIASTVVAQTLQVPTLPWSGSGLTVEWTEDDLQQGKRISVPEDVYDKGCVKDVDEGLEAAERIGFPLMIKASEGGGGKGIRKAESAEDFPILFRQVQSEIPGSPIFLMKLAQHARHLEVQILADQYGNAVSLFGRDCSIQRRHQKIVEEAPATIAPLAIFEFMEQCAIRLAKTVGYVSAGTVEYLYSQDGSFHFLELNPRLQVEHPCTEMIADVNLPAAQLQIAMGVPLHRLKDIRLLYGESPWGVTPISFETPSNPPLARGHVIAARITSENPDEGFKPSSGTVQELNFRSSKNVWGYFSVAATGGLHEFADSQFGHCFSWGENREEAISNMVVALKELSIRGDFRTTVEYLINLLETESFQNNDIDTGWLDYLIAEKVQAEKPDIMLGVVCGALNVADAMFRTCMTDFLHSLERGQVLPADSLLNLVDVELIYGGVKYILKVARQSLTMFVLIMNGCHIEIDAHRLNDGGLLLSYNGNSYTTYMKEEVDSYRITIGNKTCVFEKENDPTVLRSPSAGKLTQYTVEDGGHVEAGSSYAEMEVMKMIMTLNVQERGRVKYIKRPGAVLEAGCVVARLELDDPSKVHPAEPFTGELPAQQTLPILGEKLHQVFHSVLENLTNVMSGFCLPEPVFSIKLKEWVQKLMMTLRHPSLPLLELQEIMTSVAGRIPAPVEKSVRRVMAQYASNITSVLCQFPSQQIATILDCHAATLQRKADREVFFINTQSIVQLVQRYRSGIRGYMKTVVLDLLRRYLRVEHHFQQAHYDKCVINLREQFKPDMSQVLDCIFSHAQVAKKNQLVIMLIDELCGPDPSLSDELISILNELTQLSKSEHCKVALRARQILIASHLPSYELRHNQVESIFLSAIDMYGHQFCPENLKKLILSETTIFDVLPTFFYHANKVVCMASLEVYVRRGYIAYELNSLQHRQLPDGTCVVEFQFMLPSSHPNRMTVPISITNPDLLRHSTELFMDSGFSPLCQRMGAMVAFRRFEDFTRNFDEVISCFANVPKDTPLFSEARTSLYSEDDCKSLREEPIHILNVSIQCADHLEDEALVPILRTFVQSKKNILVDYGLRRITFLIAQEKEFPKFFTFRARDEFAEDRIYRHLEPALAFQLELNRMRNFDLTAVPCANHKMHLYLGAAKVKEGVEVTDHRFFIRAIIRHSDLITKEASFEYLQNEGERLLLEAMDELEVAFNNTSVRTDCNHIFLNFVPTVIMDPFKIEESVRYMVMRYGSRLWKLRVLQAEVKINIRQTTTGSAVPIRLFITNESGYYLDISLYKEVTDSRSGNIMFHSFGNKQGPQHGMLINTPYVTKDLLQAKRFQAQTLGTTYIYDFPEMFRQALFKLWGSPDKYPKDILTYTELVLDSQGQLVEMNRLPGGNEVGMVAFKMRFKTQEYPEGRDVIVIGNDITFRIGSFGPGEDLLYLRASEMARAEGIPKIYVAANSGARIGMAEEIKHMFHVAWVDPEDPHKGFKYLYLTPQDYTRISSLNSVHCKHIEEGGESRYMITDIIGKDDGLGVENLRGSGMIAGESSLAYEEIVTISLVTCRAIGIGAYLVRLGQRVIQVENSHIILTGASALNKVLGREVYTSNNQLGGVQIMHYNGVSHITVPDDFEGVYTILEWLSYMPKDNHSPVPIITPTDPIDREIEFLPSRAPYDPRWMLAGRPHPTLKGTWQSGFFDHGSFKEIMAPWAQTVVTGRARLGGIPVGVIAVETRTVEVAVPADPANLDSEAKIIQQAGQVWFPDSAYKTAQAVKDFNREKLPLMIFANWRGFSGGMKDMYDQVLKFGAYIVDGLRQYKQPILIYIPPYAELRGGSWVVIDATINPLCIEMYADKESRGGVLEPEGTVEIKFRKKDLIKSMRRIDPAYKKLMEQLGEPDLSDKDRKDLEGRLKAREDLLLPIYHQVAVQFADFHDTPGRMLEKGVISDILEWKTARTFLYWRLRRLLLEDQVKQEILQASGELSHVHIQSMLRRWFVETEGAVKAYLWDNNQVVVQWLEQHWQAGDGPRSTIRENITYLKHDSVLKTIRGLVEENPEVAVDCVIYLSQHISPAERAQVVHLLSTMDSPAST
- measurement_description: Inhibition of human recombinant his-tagged ACC2 expressed in baculovirus/Sf9 cell assessed as inorganic phosphate formation […] measured after 1.5 hrs by Malachite green reagent method
Kindly state pIC50 for each of the entries shown.
Answers are plain numbers, as −log10 of the molar value.

                               smiles_input  result
0  CC(C)(C)OC(=O)NC[C@H]1CC[C@H](CNC(=O)c2cc(-c3cn[nH]c3)nc3ccccc23)CC1    6.24
1  CC(C)(C)OC(=O)NC[C@H]1CC[C@H](CNC(=O)c2cc(-c3ccccc3)nc3[nH]ccc23)CC1    6.11
2  CN(C)CCC1CCN(c2cc(C(=O)NC[C@H]3CC[C@H](CNC(=O)OCC(C)(C)C)CC3)c3ccccc3n2)CC1    6.89

Give me pIC50 for each of these compounds, listed below.
1. CN(C)CCC1CCN(c2cc(C(=O)NC[C@H]3CC[C@H](CNC(=O)OC(C)(C)C)CC3)c3ccccc3n2)CC1
2. O=C(c1cc(-c2ccccc2)nc2ccccc12)N1CCN(Cc2ccc3c(c2)OCO3)CC1
3. CC(C)(C)OC(=O)NC[C@H]1CC[C@H](CNC(=O)c2cc(-c3cccc(CN)c3)nc3ccccc23)CC1

Reply |
[6.96, 5.44, 7.28]

----------
- measurement_description: Half life in C57BL/6 mouse at 20 umol/kg, po
- Assay type: ADME, organism-based
- cond: in vivo
endpoint_name: half-life (h)
Numbers only, in h.

Ask | What does the record list as half-life for CN(C)CCC1CCN(c2cc(C(=O)NC[C@H]3CC[C@H](CNC(=O)OC(C)(C)C)CC3)c3ccccc3n2)CC1 ?
Reply | 4.5

----------
Kindly state logD for each of the entries shown.
- measurement_description: Lipophilicity, log D of the compound
- Assay type: physicochemical
- cond: octanol/water

Recorded results for 3 compounds are shown here.
>>> print(df.to_string())
                               smiles_input  endpoint_name  result
0  CC(C)(C)OC(=O)NC[C@H]1CC[C@H](CNC(=O)c2cc(-c3cccc(CN)c3)nc3ccccc23)CC1           logD     3.4
1  Cc1noc(C)c1-c1cc(C(=O)NC[C@H]2CC[C@H](CNC(=O)OC(C)(C)C)CC2)c2ccccc2n1           logD       5
2  CC(C)(C)OC(=O)NC[C@H]1CC[C@H](CNC(=O)c2cc(N3CCC(CCN)CC3)nc3ccccc23)CC1           logD     3.2

Now consider the entry below.
Ask | What does the record list as logD for CN(C)CCN1CCN(c2cc(C(=O)NC[C@H]3CC[C@H](CNC(=O)OC(C)(C)C)CC3)c3ccccc3n2)CC1 ?
Reply | 3.4

----------
- target: CYP2C19 (Homo sapiens, UniProt P33261)
- Sequence (P33261 whole entry): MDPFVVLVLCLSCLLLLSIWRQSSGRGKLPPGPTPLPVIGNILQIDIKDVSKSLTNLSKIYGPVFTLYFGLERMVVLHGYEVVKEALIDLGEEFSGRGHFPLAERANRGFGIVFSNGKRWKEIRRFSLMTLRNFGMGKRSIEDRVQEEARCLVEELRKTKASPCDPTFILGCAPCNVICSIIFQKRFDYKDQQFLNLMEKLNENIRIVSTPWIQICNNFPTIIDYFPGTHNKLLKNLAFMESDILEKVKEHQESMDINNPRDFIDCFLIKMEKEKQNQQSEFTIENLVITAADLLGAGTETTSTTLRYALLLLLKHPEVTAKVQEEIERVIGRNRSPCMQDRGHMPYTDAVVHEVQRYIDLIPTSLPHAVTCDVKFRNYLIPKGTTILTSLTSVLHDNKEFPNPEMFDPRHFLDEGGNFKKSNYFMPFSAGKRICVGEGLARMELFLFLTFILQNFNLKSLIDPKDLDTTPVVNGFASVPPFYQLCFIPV
- measurement_description: Inhibition of CYP2C19 at 13 uM
- Assay type: ADME
Kindly state inhibition at 13 µM for each of the entries shown.

                               smiles_input                                  target  result
0  CN(C)CCC1CCN(c2cc(C(=O)NC[C@H]3CC[C@H](CNC(=O)OC(C)(C)C)CC3)c3ccccc3n2)CC1  CYP2C19 (Homo sapiens, UniProt P33261)   < 50%

Now consider the entry below.
Ask | What does the record list as inhibition at 13 µM for CN(C)CCN1CCN(c2cc(C(=O)NC[C@H]3CC[C@H](CNC(=O)OC(C)(C)C)CC3)c3ccccc3n2)CC1 ?
Reply | < 50%

----------
- target: Acetyl-CoA carboxylase 2 (Homo sapiens, UniProt O00763)
- measurement_description: Inhibition of human recombinant his-tagged ACC2 expressed in baculovirus/Sf9 cell assessed as inorganic phosphate formation […] measured after 1.5 hrs by Malachite green reagent method
Kindly state pIC50 for each of the entries shown.
One number for each entry, as −log10 of the molar value.

In [3]: df
Out[3]:
                               smiles_input  result
0  CC(C)(C)OC(=O)NC[C@H]1CC[C@H](CNC(=O)c2cc(N3CCC(CCO)CC3)nc3ccccc23)CC1    6.64
1  CN(C)CCN1CCN(c2cc(C(=O)NC[C@H]3CC[C@H](CNC(=O)OC(C)(C)C)CC3)c3ccccc3n2)CC1    6.14
2  CC(C)(C)OC(=O)NC[C@H]1CC[C@@H](CNC(=O)c2cc(-c3ccccc3)nc3ccccc23)CC1    6.00

Give me pIC50 for each of these compounds, listed below.
1. CC(C)(C)OC(=O)NC[C@H]1CC[C@H](CNC(=O)c2cc(N3CCC(CN)CC3)nc3ccccc23)CC1
2. CC(C)(C)OC(=O)NC[C@H]1CC[C@H](CNC(=O)c2cc(-c3ccccc3)nc3ccccc23)CC1

Reply |
[6.16, 6.68]

----------
- measurement_description: Clearance in C57BL/6 mouse at 20 umol/kg, iv and 20 umol/kg, po
- Format: ADME, organism-based
- cond: in vivo
endpoint_name: clearance (mL/min/kg)
One number for each entry, in mL/min/kg.

Ask | What does the record list as clearance for CN(C)CCC1CCN(c2cc(C(=O)NC[C@H]3CC[C@H](CNC(=O)OC(C)(C)C)CC3)c3ccccc3n2)CC1 ?
Reply | 46

----------
- measurement_description: Solubility of the compound after 16 hrs by LC-UV/MS analysis
- Type: physicochemical
endpoint_name: solubility at 16 h

Recorded results for 2 molecules are shown here.
In [3]: df
Out[3]:
                               smiles_input  result
0  CC(C)(C)OC(=O)NC[C@H]1CC[C@H](CNC(=O)c2cc(-c3ccccc3)nc3ccccc23)CC1  < 1 µM
1  CN(C)CCC1CCN(c2cc(C(=O)NC[C@H]3CC[C@H](CNC(=O)OC(C)(C)C)CC3)c3ccccc3n2)CC1   79 µM

Give me solubility at 16 h for each of these molecules, listed below.
1. CN(C)CCN1CCN(c2cc(C(=O)NC[C@H]3CC[C@H](CNC(=O)OC(C)(C)C)CC3)c3ccccc3n2)CC1
2. CC(C)(C)OC(=O)NC[C@H]1CC[C@H](CNC(=O)c2cc(-c3cccc(CN)c3)nc3ccccc23)CC1
3. CC(C)(C)OC(=O)NC[C@H]1CC[C@H](CNC(=O)c2cc(-c3ccncc3)nc3ccccc23)CC1
4. CC(C)(C)OC(=O)NC[C@H]1CC[C@H](CNC(=O)c2cc(N3CCC(CCN4CC(O)C4)CC3)nc3ccccc23)CC1

Reply |
73 µM
8 µM
< 1 µM
80 µM
